B1: tRNA (parent)
chain: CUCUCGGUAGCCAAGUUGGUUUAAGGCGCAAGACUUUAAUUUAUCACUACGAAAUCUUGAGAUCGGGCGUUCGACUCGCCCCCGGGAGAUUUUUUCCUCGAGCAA

Variants of: B1
test name: nonsense suppression (GFP-seq) (ratio to wild type); higher = more function; SUP4oc tRNA, yeast GFP reporter sort-seq
Variants at the floor of the assay were thinned out.
observation type: nonsense suppression
Lab note: write the figure by itself, no unit.

U20G G61A	0.635

Enquiry: Tell me the measured nonsense suppression of G32U U63A C82U , please.
Return: 0.0283

Enquiry: Tell me the measured nonsense suppression of G15A C80U , please.
Return: 0.167

Enquiry: Tell me the measured nonsense suppression of A9U A54G , please.
Return: 0.0306

Ref: the RNAGym collection of RNA variant scans (doi:10.1101/gad.245936.114)
